target under test: Cyno in house BCMA
Sequence (as listed by the source): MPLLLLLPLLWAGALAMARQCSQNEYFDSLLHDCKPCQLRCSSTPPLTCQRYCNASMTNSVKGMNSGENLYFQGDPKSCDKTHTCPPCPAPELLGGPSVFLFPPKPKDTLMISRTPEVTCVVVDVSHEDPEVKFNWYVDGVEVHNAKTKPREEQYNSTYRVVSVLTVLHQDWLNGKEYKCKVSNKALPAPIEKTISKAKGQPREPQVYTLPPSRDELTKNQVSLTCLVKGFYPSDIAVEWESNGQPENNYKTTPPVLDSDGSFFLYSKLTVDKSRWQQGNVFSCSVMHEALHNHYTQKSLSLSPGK
assay: ProteOn analysis of CA8 chimeric and humanised constructs, cyno in house BCMA
Assay type: binding
particulars: Run 1, Cyno in house BCMA, 25° C., in s-1 (unit assumed)
kd overview

molecule | kd
CA8 humanised J2M1: humanised CA8 anti-BCMA antibody, VH J2 (SEQ ID NO:15) + VL M1 (SEQ ID NO:33) (antibody, V domains shown, Humansed antibody sequence) VH: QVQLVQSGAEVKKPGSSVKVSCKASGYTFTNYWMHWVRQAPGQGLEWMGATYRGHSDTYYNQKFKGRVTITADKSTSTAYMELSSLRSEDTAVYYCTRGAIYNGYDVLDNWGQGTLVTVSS VL: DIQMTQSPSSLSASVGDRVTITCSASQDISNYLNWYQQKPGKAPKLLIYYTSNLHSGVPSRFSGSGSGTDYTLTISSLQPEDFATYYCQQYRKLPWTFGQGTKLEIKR | 6.46E−05

Now for another entry.
Enquiry: For the molecule CA8 humanised J3M1: humanised CA8 anti-BCMA antibody, VH J3 (SEQ ID NO:17) + VL M1 (SEQ ID NO:33) (antibody, V domains shown, Humansed antibody sequence) VH: QVQLVQSGAEVKKPGSSVKVSCKGSGYTFTNYWMHWVRQAPGQGLEWMGATYRGHSDTYYNQKFKGRVTITADTSTSTAYMELSSLRSEDTAVYYCTRGAIYNGYDVLDNWGQGTLVTVSS VL: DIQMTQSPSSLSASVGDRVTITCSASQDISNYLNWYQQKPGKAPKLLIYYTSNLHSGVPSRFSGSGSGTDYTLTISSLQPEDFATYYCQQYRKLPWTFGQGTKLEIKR , what kd is on record?
Return: 7.93E−05
